experimental-target: hT2R8 (Homo sapiens (Human))
Sequence (Q9NYW2 whole entry): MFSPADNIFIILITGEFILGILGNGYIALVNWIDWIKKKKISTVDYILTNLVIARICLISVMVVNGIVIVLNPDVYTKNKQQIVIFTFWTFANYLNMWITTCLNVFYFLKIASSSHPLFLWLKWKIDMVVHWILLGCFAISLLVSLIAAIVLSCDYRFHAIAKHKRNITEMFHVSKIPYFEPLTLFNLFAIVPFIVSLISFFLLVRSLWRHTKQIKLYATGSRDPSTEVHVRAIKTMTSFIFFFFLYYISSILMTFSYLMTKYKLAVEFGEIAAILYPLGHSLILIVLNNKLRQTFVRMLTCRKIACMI
assay-notes: hT2R8 antagonist high-throughput FLIPR assay, stable cell line with G16g44, agonist andrographolide
Format: cell-based
settings: Table A; read-out: hT2R8 IC50
property-measured: IC50 (nM)
Give bare numbers, in nM.

smi: COc1ccc(CC(=O)Nc2cnn(Cc3c(C)noc3C)c2)cc1O
property-measured: IC50
reported: 3100

For each of the items listed, what is its IC50?
1. Cc1cccc(C(=O)Nc2cnn(Cc3c(C)noc3C)c2)n1
2. CCOc1cccc(C(=O)Nc2cnn(Cc3c(C)noc3C)c2)c1
3. CCc1nc2cc(C(=O)Nc3cnn(Cc4c(C)noc4C)c3)ccc2o1
4. COc1cc(C(=O)Nc2cnn(Cc3c(C)noc3C)c2)ccc1O

Result ::
1950
220
800
480
